Tested on: Streptococcus pneumoniae
Experiment: Antibacterial activity against fluoroquinolone resistant Streptococcus pneumoniae SP-3765 by NCCLS method
Format: functional
metric: log10 of MIC (log10 of the value in µg/mL)

# compound, log10 of MIC
measured = [
    ("CCNC(=O)Nc1cn2c(-c3ncc(C)cn3)cc(-c3cnc(N(C)C)nc3)cc2n1", -0.90),
    ("CCNC(=O)Nc1cn2c(-c3ncc(C)cn3)cc(-c3cncnc3)cc2n1", -1.22),
    ("CCNC(=O)Nc1cn2c(-c3nccc(C4CC4)n3)cc(-c3cccnc3)cc2n1", -0.60),
    ("CCCCNC(=O)Nc1cn2c(-c3ncc(C)cn3)cc(-c3cccnc3)cc2n1", -0.90),
    ("CO[C@@H]1[C@@H](OC(N)=O)[C@@H](O)[C@H](Oc2ccc3c(O)c(NC(=O)c4ccc(O)c(CC=C(C)C)c4)c(=O)oc3c2C)OC1(C)C [NOVOBIOCIN]", 0.60),
    ("CCNC(=O)Nc1cn2c(-c3ncc(C)cn3)cc(-c3cnc(OC)nc3)cc2n1", 1.20),
    ("CCNC(=O)Nc1cn2c(-c3ncc(CC)cn3)cc(-c3cccnc3)cc2n1", -1.22),
    ("CCNC(=O)Nc1cn2c(-c3nc(C)cc(C(F)(F)F)n3)cc(-c3cccnc3)cc2n1", -0.90),
    ("Cc1cnc(-c2cc(-c3cccnc3)cc3nc(NC(=O)NC4CC4)cn23)nc1", -0.60),
    ("CCNC(=O)Nc1cn2c(-c3ncc(F)cn3)cc(-c3cccnc3)cc2n1", -0.90),
    ("CCNC(=O)Nc1cn2c(-c3nc(C)cc(C)n3)cc(-c3cccnc3)cc2n1", -0.30),
    ("CCNC(=O)Nc1cn2c(-c3ncc(C)cn3)cc(-c3ccn(CC(=O)O)c(=O)c3)cc2n1", 1.81),
    ("CCNC(=O)Nc1cn2c(-c3ncc(C)cn3)cc(-c3ccn(CCF)c(=O)c3)cc2n1", -0.30),
    ("CCNC(=O)Nc1cn2c(-c3ncc(C)cn3)cc(-c3ccc(OC)nc3)cc2n1", -0.90),
    ("CCNC(=O)Nc1cn2c(-c3ncccn3)cc(-c3cnc(N(C)C)nc3)cc2n1", -0.90),
    ("Cc1cnc(-c2cc(-c3cccnc3)cc3nc(NC(=O)N(C)C(F)(F)F)cn23)nc1", -0.90),
    ("CNC(=O)Nc1cn2c(-c3ncc(C)cn3)cc(-c3cccnc3)cc2n1", -0.60),
    ("CCC(=O)Nc1cn2c(-c3ncc(C)cn3)cc(-c3cccnc3)cc2n1", 1.20),
    ("CCNC(=O)Nc1cn2c(-c3ncc(C)cn3)cc(-c3ccn(CC)c(=O)c3)cc2n1", -0.90),
    ("CCNC(=O)Nc1cn2c(-c3ncccn3)cc(-c3cncnc3)cc2n1", -0.90),
    ("CCNC(=O)Nc1cn2c(-c3ncc(C)cn3)cc(-c3ccn(CCOC)c(=O)c3)cc2n1", -0.90),
    ("CCNC(=O)Nc1cn2c(-c3nc(C(F)(F)F)cc(C(F)(F)F)n3)cc(-c3cccnc3)cc2n1", -0.90),
    ("CCNC(=O)Nc1cn2c(-c3ncc(C)cn3)cc(-c3cnc(N4CCCC4)nc3)cc2n1", -1.22),
    ("CCCn1ccc(-c2cc(-c3ncc(C)cn3)n3cc(NC(=O)NCC)nc3c2)cc1=O", -1.22),
    ("CCNC(=O)Nc1cn2c(-c3ncc(C)cn3)cc(-c3cccnc3)cc2n1", -0.90),
    ("CCNC(=O)Nc1cn2c(-c3ncccn3)cc(-c3ccc(C)nc3)cc2n1", -1.22),
]

Where do these numbers come from? They come from ChEMBL document CHEMBL1155993.
